# System: MS2 coat protein
# test-details: apparent KD of MS2 coat protein; higher = weaker reporter binding
# assay-conditions: Eterna round: R107; input ligand: theophylline 2 mM
property-measured: apparent KD of MS2 coat protein

Please review the entries below; each comes with its answer.
INSERT INTO measurements (query_sequence, property_measured, result) VALUES
  ('UUGUAUAUGCGAAGGAGCGGGAAAUAUAUAUAUAUAAUCCUAACAUGAGGAUCACCCAUGUCCCAGGUAGGUCGCGCAUAUAUGG [12.F]', 'apparent KD of MS2 coat protein', '87.9 nM'),
  ('AUCAUAAUAGACUCGUUAGAUUAUAUGGAACGAGGACCGGUACGGCCGCCACUCGUGAUGUACAUGAGGAUCACCCAUGUUAGCA [JR_SSTryptoA_Sub002]', 'apparent KD of MS2 coat protein', '17.3 nM'),
  ('GCGACCCUGAGAUCCUACGUAACGUGAACACGAGGACCGGUACGGCCGCCACUCGAGAGAACAUGAGGAUCACCCAUGUCUGAGC [e-trypA-0]', 'apparent KD of MS2 coat protein', '30.8 nM'),
  ('GCCGGACUUUCGGCCGCCACUGAGAGAGUCGUGUGAACAUGAGGAUCACCCAUGUAAUAUAUAUACAGGACCGGGAGGGUUCGGC [4.S]', 'apparent KD of MS2 coat protein', '11.9 nM'),
  ('GGCCCGGACUUGGAAUGGGUGUUUCCUUCACGAGGACCGGUACGGCCGCCACUCGAAGACAUGAGGAUCACCCAUGUAGUCGACC [Soleti]', 'apparent KD of MS2 coat protein', '41.1 nM');

Field apparent KD of MS2 coat protein (MS2 coat protein), entry UGACAGAUAACCGCUGGUGCUCUCGAGUUGCGAGGACCGGUACGGCCGCCACUCGACAACAUGAGGAUCACCCAUGUUGCGGGUC [Lareara] : 156 nM

====

# Tested on: MS2 coat protein
# test-details: apparent KD of MS2 coat protein; designed switch direction (-1 OFF switch, 1 ON switch): -1; higher = weaker reporter binding
# assay-conditions: input ligand: none
Listed here are sequences together with their documented apparent KD of MS2 coat protein.
All answers are understood in nM, so give the number only.

Please review the entries below; each comes with its answer.
INSERT INTO assay_data (query_sequence, tgt, numeric_readout) VALUES
  ('GGCACCGUAGGAUAUUGUGGUGCAGACAUGAGGAUCACCCAUGUUGAUCCGGGACUGCAGCGAGAAGGACGGGAAA [Eternabot (Original) Solution 2] (Eterna round: R97, puzzle: Exclusion 5)', 'MS2 coat protein', 344),
  ('UGAGUGCUGCGAGGAUAUACAUGAGGAUCACCCAUGUUUUCGUGUGAGGCAAAGCCUCACACGAUGUAGAAGGCGCAGUACUCU [Mat - Exclusion NG 2 - Mod of JL - D35] (Eterna round: R96, puzzle: Exclusion NG 2)', 'MS2 coat protein', 16.1),
  ('GGUCCGCAUGUCAGGAUAUACAUAUGGAUCAUAGAGUAGAAGGGACUUGAGGAUCACCCAAGUAACAAAAGAAG [Tiantere] (Eterna round: R97, puzzle: Brourd''s mod of Exclusion 4)', 'MS2 coat protein', 21.3);

Short answer for CACAUGAGACGGAGAUCCAACAUGAGGAUCACCCAUGUCUCAAAAGCUUUUUGCUUGUCUUAUCCUCCUCUCGUGAC [Mat - Sensor, turn-off var - Eli Mod - D61] (Eterna round: R97, puzzle: Sensor, turn-off variant 1) : apparent KD of MS2 coat protein was 46.7
